- Measured Target: human GnRH receptors (Homo sapiens, UniProt P30968)
- Sequence (P30968 whole entry): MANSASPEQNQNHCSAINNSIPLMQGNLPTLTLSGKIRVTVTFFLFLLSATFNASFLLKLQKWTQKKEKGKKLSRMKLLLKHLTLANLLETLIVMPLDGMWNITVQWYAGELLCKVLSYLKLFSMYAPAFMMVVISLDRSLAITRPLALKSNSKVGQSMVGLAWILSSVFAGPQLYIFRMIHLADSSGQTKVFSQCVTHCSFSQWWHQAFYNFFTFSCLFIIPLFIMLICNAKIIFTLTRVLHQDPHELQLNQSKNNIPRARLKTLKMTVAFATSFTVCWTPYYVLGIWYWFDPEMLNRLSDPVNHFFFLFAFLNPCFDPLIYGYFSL
- Procedure Text: Human GnRH receptor functional assay (intracellular calcium release)
- Condition Summary: CHO-K1 cells expressing human GnRH receptors; block of GnRH (EC80)-induced intracellular calcium release; 20 minutes pre-incubation
Recorded Metric: IC50 (µM)

a: COc1cc2c(cc1Oc1nc(C(=O)Nc3c(OC)nc(NCCNC(C)C)nc3OC)cs1)C(C)(C)CC2
b: COc1nc(NCCCN2CCOCC2)nc(OC)c1NC(=O)c1csc(Oc2cccc(C(C)(C)C)c2)n1
c: COc1nc(NCCN(C)C)nc(OC)c1NC(=O)c1csc(Oc2cc(C(C)(C)C)ccc2C)n1
Input: Please rank the 3 items above; order by IC50, the highest number leading. A complete answer lists every label in the requested sequence.
Output: b, c, a
(b: 0.485 µM, c: 0.193 µM, a: 0.004 µM)
